Molecular target: EGFR (Homo sapiens, UniProt P00533)
Construct: endogenous in cells; host or cells: A431 cells (ATCC CRL-1555)
Sequence (P00533 25-1210): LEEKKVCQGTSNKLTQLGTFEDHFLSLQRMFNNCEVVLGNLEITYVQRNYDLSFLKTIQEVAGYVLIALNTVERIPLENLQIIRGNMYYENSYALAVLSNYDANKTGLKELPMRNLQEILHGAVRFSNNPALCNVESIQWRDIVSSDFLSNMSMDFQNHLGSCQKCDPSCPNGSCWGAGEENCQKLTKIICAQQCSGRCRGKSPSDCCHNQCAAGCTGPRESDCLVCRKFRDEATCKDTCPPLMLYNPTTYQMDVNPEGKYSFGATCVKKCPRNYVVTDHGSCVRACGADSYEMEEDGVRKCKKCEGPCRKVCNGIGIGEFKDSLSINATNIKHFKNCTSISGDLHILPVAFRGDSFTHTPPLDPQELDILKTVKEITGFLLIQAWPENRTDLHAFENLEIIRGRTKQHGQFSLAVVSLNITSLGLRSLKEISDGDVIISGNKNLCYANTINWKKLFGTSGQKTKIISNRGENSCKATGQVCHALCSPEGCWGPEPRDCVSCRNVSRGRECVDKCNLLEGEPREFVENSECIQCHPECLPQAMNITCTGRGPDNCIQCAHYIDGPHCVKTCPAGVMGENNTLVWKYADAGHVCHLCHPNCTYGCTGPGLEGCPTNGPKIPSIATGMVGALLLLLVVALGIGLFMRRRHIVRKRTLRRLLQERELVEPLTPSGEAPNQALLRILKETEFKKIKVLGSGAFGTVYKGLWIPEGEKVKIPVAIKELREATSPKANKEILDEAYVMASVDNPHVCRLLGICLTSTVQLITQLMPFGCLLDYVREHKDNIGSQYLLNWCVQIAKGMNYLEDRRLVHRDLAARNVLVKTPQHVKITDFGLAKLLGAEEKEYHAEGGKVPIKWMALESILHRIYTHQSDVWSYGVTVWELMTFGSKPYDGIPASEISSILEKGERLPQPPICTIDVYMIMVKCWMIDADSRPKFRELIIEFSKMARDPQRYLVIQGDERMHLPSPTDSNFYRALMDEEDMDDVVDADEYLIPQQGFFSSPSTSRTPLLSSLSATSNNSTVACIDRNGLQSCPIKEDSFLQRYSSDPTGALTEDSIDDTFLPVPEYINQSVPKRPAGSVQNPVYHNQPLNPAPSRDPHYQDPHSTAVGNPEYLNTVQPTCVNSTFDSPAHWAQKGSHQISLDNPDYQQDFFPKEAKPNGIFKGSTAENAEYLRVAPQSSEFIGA
Assay: EGFR in-cell Western (ICW) screening protocol
Format: cell-based
Design: unit not given here
Conditions: initial screen
Method: The following example describes general EGFR in-cell Western (ICW) screening protocol. Two cell plates were prepared for each compound plate. Serum Starvation: The cells were serum starved prior to compound addition. […] The cell plates were incubated at 37° C./5% CO2 for 2 hours. Prepared compound plates were stored at RT prior to use and at 4° C. long term. […] Data Analysis: The % of Maximum and % Inhibition values were calculated as follows. […]
measure_name: ICW Screen
Format: numeric value only, no unit, no commentary.

// recorded ICW Screen for Oc1cc2cccnc2cc1C(Nc1ccccn1)c1cccs1 (stereo not shown) [compound 10938] : 40.36

Value of measured ICW Screen for the entry CON1CCN(C(c2cccnc2)c2ccc3cccnc3c2O)CC1 (stereo not shown) [compound 10551] : 29.14

Field ICW Screen (entry CC(C)Oc1ccc(C(Nc2ccccn2)c2ccc3cccnc3c2O)cc1 (stereo not shown) [compound 10068] ) reads 29.92

Given item C=CCOc1cccc(C(Nc2cc(C)ccn2)c2ccc3cccnc3c2O)c1 (stereo not shown) [compound 10144] , the value recorded as its ICW Screen is 39.73
